# protocol-details: Cytotoxicity MTT assay
# Format: cell-based
# condition: human, QGY-7703 cells (hepatocarcinoma), 48 h treatment, 1 to 100 μg/mL
# Experimental: Cytotoxicity of compound 3 against A549, HeLa, QGY-7703, and MDA231 cell lines was weaker when compared to that of 1. […] The PTP1B inhibitors are recognized as potential therapeutic agents for the treatment of type II diabetes and obesity. The cytotoxicity of compounds 1-3 against HCT-116, A549, HeLa, QGY-7703, and MDA231 cell lines was evaluated by the MTT assay as described in a previous report. […] The produced formazan was measured by the absorbance at 570 nm on a microplate reader. […]
quantity-name: IC50 at 48 h (µg/mL)
Provide only the numeric value, understood in µg/mL.

Query: For the compound CCCCC(C)CC(O)(/C=C(/CC)[C@@H](O)CC(=O)OC)CC (stereo partly shown) [Compound 1, Woodylide A] , what IC50 at 48 h is on record?
Reply: 25.8

Origin of the recorded values: paper PMC3397464
